Source of measurements: patent US8586579B2

melting point for assorted molecules
Remember to quote the unit after the number.

CO[C@@H](C)C(=O)N[C@H]1CC[C@H](CCN2CCN(c3nccc4c3CCO4)CC2)CC1 :: 158.5 °C
CC(=O)N[C@H]1CC[C@H](CCN2CCN(c3ncc(C)c4c3CCO4)CC2)CC1 :: 196.5 °C
O=C(C[C@H]1CCCO1)N[C@H]1CC[C@H](CCN2CCN(c3nccc4c3CCO4)CC2)CC1 :: 183 °C

Here's the next entry for you.
## Task What melting point value was documented for this molecule, C/C=C/CC(=O)N[C@H]1CC[C@H](CCN2CCN(c3nccc4c3CCO4)CC2)CC1 ?
## Result 175.5 °C

###

molecular target: human 5-HT2A receptor (Homo sapiens (Human)); assay: Radioligand binding assay, [3H]-ketanserin, human 5-HT2A receptor; settings: membranes of HEK293 EBNA cells expressing human 5-HT2A; 1.1 nM [3H]-ketanserin
Sequence (P28223 whole entry): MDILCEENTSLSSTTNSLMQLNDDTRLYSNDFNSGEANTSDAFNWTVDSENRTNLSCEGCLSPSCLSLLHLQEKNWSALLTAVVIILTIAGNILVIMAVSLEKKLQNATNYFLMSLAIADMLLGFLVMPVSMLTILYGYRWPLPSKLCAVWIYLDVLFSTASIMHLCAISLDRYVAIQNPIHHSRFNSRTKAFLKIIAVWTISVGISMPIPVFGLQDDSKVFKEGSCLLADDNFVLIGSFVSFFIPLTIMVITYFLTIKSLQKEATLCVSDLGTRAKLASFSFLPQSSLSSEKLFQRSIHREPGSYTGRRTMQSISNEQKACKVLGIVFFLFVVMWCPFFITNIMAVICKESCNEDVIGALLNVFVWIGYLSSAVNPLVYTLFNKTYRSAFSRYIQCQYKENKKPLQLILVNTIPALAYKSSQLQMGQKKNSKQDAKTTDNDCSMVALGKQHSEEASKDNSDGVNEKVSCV
Assign labels as follows, please: YES for Ki below 10 nM; NO for Ki equal to or exceeding 10 nM.

CCCC(=O)N[C@H]1CC[C@H](CCN2CCN(c3nccc4c3CCO4)CC2)CC1 [Example 92] :: NO

## Task Hello, I'm reviewing records and need to know if Ki of O=C(CO)N[C@H]1CC[C@H](CCN2CCN(c3nccc4occc34)CC2)CC1 [Example 7] is below 10 nM. Could you check?
## Result YES

## Task Is it true that Ki reported for N#Cc1ccc(C(=O)N[C@H]2CC[C@H](CCN3CCN(c4nccc5c4CCO5)CC3)CC2)cc1 [Example 117] is less than 10 nM?
## Result NO

## Task Please let me know if CS(=O)(=O)N[C@H]1CC[C@H](CCN2CCN(c3nccc4sccc34)CC2)CC1 [Example 30] shows Ki below 10 nM.
## Result YES

## Task Problem: For the compound O=C(N[C@H]1CC[C@H](CCN2CCN(c3nccc4occc34)CC2)CC1)C1CCOCC1 [Example 11] , is Ki under 10 nM?
## Result YES

## Task Please determine if O=C(CO)N[C@H]1CC[C@H](CCN2CCN(c3nccc4c3CCO4)CC2)CC1 [Example 40] is below 10 nM in terms of Ki.
## Result NO

## Task # TODO verify Ki < 10 nM strictly for this compound: O=C(N[C@H]1CC[C@H](CCN2CCN(c3nccc4c3CCO4)CC2)CC1)C1CCOCC1 [Example 33]
## Result YES

## Task Report whether reported Ki is lower than 10 nM (strictly) for Cc1cnc(N2CCN(CC[C@H]3CC[C@H](NC(=O)CC4CCOCC4)CC3)CC2)c2c1OCC2 [Example 110]
## Result NO

## Task Is the reported Ki for O=C(N[C@H]1CC[C@H](CCN2CCN(c3nccc4occc34)CC2)CC1)C1CC1 [Example 13] strictly below 10 nM?
## Result YES

## Task Check if Ki falls below 10 nM for CC(=O)N[C@H]1CC[C@H](CCN2CCN(c3ncc(C)c4occc34)CC2)CC1 [Example 104] .
## Result NO

## Task Hello, is Ki of the following compound strictly smaller than 10 nM? COCCC(=O)N[C@H]1CC[C@H](CCN2CCN(c3nccc4occc34)CC2)CC1 [Example 5]
## Result YES

## Task Threshold test, Ki < 10 nM: COCCC(=O)N[C@H]1CC[C@H](CCN2CCN(c3nc(C)cc4occc34)CC2)CC1 [Example 99]
## Result NO

## Task Would you kindly verify if Ki of CS(=O)(=O)c1ccc(C(=O)N[C@H]2CC[C@H](CCN3CCN(c4nccc5c4CCO5)CC3)CC2)s1 [Example 115] is strictly less than 10 nM?
## Result YES

## Task In the record for CC(=O)N[C@H]1CC[C@H](CCN2CCN(c3nc(C)cc4occc34)CC2)CC1 [Example 96] , is Ki less than 10 nM?
## Result NO

## Task Is Ki strictly under 10 nM for the entry COCC(=O)N[C@H]1CC[C@H](CCN2CCN(c3nccc4sccc34)CC2)CC1 [Example 22] ?
## Result YES
